study.target: Cytochrome P450 2C9 (Homo sapiens)
test.name: blockers of cytochrome P450 2C9 activity – biochemical, luminescence, ADME assay, primary screen (AID 777)
study.conditions: CYP2C9 Supersomes, luciferin-H conversion, at 5 µM, stronger effect = higher value
In all, about 96,000 compounds went through this assay and about 19,000 (20%) were called active. Not all results are given here.
# cutoff 10% applies to inhibition; >= gives Condition met, < gives Condition not met

COc1ccc2[nH]c3ccc(OC)cc3c2c1; Condition met
O=C(NC1CCCCC1)C1c2ccccc2C(=O)N1Cc1ccco1 (configuration not stated); Condition not met
O=[N+]([O-])c1ccccc1NCc1ccc(Cl)cc1; Condition met
CCCNc1ncnc2sc(C)c(C)c12; Condition not met
COc1ccccc1CNS(=O)(=O)c1ccc(C)cc1; Condition not met
CSc1nc(N(C)NC(=O)c2cccc(C)c2)c2ccccc2n1; Condition not met
O=C1c2ccccc2C(Nc2ccc3c(c2)OCCO3)N1Cc1ccco1 (configuration not stated); Condition met
CC(C)CNC(=O)COC(=O)/C=C/c1ccccc1[N+](=O)[O-]; Condition not met
CCc1ccc2c(c1)cc(CN(C(=S)Nc1ccccc1Cl)C1CC1)c1nnnn12; Condition not met
O=C(Nc1ccccc1[N+](=O)[O-])C1C(c2ccccc2)=C1c1ccccc1; Condition met
O=C(NCc1ccc(Cl)cc1)c1cc(=O)nc2sc(-c3ccccc3)nn12; Condition not met
CCOC(=O)c1ccc(NC(=O)CSc2nnc(COc3ccccc3OC)n2C)cc1; Condition met
COC(=O)/C(=C\Nc1ccccc1)NC(=O)c1ccc(Cl)cc1Cl; Condition met
CNC(=O)C1CC(=O)N(Cc2ccc3c(c2)OCO3)C(=Nc2ccc(F)cc2)S1 (configuration not stated); Condition met
COC(=O)c1ccc(OCC(=O)NC(C)(C)C)cc1; Condition met
O=C(Nc1ccccc1F)c1cc(S(=O)(=O)N2CCCCC2)cs1; Condition met
CCc1ccccc1NC1c2ccccc2C(=O)N1c1cccnc1 (configuration not stated); Condition met
CCCOC(=O)Cc1c(O)c2ccccc2[nH]c1=O; Condition not met
COC(=O)c1cn(CC(=O)NCc2cccs2)c2ccccc12; Condition met
COC(=O)Cn1cc(C(=O)c2cccs2)c2ccccc21; Condition met
CCCC(=O)N1c2ccccc2NC2=C(C(=O)CCC2)C1c1ccc(F)cc1 (configuration not stated); Condition not met
CCOc1ccccc1NC(=O)c1cc(S(=O)(=O)N2CCC3(CC2)OCCO3)ccc1F; Condition not met
CCc1c(C)sc(NC(=O)c2cccs2)c1C(N)=O; Condition met
O=c1c2ccccc2oc2nc(C3CCCCC3)n(Cc3ccco3)c(=O)c12; Condition met
O=S(=O)(c1ccc(OCC(O)CN2CCN(c3ccccc3Cl)CC2)cc1)N1CCOCC1 (configuration not stated); Condition met
COc1ccc(C(=O)CSc2nnc(COc3ccccc3)n2Cc2ccco2)cc1; Condition met
CCOC(=O)N1CCN(C(=O)Cc2ccc(-n3c(=S)[nH]c4ccccc4c3=O)cc2)CC1; Condition met
CC(C)(C)NS(=O)(=O)CC12CCC(CC1=O)C2(C)C (configuration not stated); Condition met
CCc1nnc(NC(=O)c2cccs2)s1; Condition met
CCCCNC(=O)CCNC(=O)c1ccc(C(C)(C)C)cc1; Condition met
COc1ccc(-c2cn3ccsc3n2)cc1; Condition not met
CCS(=O)(=O)c1ccc2c(c1)N(S(=O)(=O)c1ccccc1)CC(C(=O)O)O2 (configuration not stated); Condition met

---

study.target: Cytochrome P450 2C9 (Homo sapiens) (UniProt P11712)
Sequence (P11712 whole entry, looked up): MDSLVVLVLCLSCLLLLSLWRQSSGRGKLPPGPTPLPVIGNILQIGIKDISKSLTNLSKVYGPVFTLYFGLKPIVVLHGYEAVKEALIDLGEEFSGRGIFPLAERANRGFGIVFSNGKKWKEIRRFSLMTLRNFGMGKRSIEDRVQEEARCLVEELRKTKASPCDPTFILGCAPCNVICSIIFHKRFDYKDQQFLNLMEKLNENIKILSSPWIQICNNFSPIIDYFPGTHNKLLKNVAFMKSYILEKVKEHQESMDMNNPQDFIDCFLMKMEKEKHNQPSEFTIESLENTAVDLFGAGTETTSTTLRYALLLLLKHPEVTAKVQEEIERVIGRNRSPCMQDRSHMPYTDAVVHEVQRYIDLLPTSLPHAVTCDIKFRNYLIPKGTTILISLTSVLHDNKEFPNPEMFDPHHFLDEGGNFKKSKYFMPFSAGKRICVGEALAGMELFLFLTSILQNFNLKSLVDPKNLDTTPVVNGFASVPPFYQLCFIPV
test.name: blockers of cytochrome P450 2C9 activity – biochemical, luminescence, ADME assay, primary screen (AID 777)
study.conditions: CYP2C9 Supersomes, luciferin-H conversion, at 5 µM
The whole screen tested about 96,000 compounds, of which about 19,000 (20%) were called active.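 Rule for the calls: active = blocking of liver enzyme CYP2C9 beyond about 50% at 5 µM (limit read from the data); inactive = the rest.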 Not all results are given here.
Classes used: active, inactive

O=C(Cc1ccc(S(=O)(=O)N2CCCC2)s1)NC1CCCCCC1; inactive
COc1ccc(/C=N/Nc2nc3ccccc3c(=O)[nH]2)cc1; inactive
CSCCC(NC(=O)C1CCC(C)CC1)C(=O)NCc1ccco1 (centres undefined); inactive
C=CCn1c(SCC(=O)NCc2ccccc2)nnc1-c1cc(Br)ccc1O; active
FC(F)(F)c1nc2ccccc2nc1N/N=C/c1ccc(Cl)cc1; inactive
COc1cc2c(cc1OC)C(c1ccncc1)CC(=O)N2 (centres undefined); inactive
O=C(c1ccc(Cl)cc1)c1ccc(OCC(O)CN2CCCCC2)cc1 (centres undefined); inactive
Cc1ccc(NC(=O)N2CCC(O)(c3cccnc3)CC2)cc1; inactive
OCCCN1c2ccccc2Nc2nnc(-c3ccccc3)cc21; inactive

---

The entries below come with measured inhibition values attached.
study.target: Cytochrome P450 2C9 (Homo sapiens)
test.name: blockers of cytochrome P450 2C9 activity – biochemical, luminescence, ADME assay, primary screen (AID 777)
study.conditions: CYP2C9 Supersomes, luciferin-H conversion, at 5 µM, stronger effect = higher value
In all, about 96,000 compounds went through this assay and about 19,000 (20%) were called active. These entries were drawn from the full list.
value.type: inhibition (%)

CC1(C)CC(CCC(=O)Nc2ccccc2Cl)C(=O)O1 (stereo not drawn); -35.4
CCCCOC(=O)Nc1sc2nc(C)cc(C)c2c1-n1cccc1; 37.4
COC(=O)Nc1sc2nc(C)cc(C)c2c1-n1cccc1; 55.1

---

study.target: Cytochrome P450 2C9 (Homo sapiens) (UniProt P11712)
test.name: blockers of cytochrome P450 2C9 activity – biochemical, luminescence, ADME assay, primary screen (AID 777)
study.conditions: CYP2C9 Supersomes, luciferin-H conversion, at 5 µM, stronger effect = higher value
Among all 96,000 compounds or so, about 19,000 (20%) were called active. Only a sample is shown.
value.type: inhibition (%)

CC1(C)C(=O)C2(CCCCC2)C(=O)OC1c1cccs1 (stereo not given); -9.3
CN(c1cccc(NC(=O)Nc2ccc(Cl)cc2)c1)S(C)(=O)=O; 30.6
C=C1c2cc(CC)ccc2NC(=O)N1c1ccc(C)cc1; 10.6
Cc1cc(C)nc(N(C#N)CC(=O)Nc2ccccc2)n1; 7.1
CCOC(=O)C1=C(CN2CCc3ccccc32)NC(=O)NC1c1ccc(Cl)cc1 (stereo not given); 4.7
COc1cc(/C=C(\C#N)c2nc3c(s2)CC(C)CC3)ccc1O (stereo not given); -74.5
CCN1C(=O)/C(=C\N2CCN(c3cccc(Cl)c3)CC2)SC1=S; 4.9
Oc1c(C(c2cccs2)N2CCN(c3ccc(F)cc3)CC2)sc2ncnn12 (stereo not given); 79.2
Cc1cc(NC(=O)COn2nnc3ccccc32)no1; 24.9
COCCOC(=O)C1=C(C)NC(=O)NC1c1ccc(Cl)cc1 (stereo not given); -3
COCCNC(=O)C(c1ccc(C)o1)N(Cc1cccs1)C(=O)c1snc(C(N)=O)c1N (stereo not given); 3.7
CCN(c1ccccc1)S(=O)(=O)c1ccc(NC(=O)C(C)(C)C)cc1; 31.5
CCCn1c(SCC(=O)Nc2cccc(C(=O)OCC)c2)nnc1-c1ccoc1C; 15.8
CCN(CC(=O)NCc1cccs1)c1nnnn1-c1ccccc1; -1.7
O=C(Oc1ccccc1)Oc1ccc2c(c1)oc(=O)c1ccccc12; -55.2
COC(=O)c1ccc(Sc2ccc(F)cc2)c(N)c1; 43.1
CC(C)C(=O)N1c2ccccc2NC2=C(C(=O)CCC2)C1c1ccc(N(C)C)cc1 (stereo not given); 16.8
O=C(Nc1nncs1)c1ccccc1NS(=O)(=O)c1cccs1; 76.4
CCOC(=O)CNC(=O)CSc1nnc(-c2cccc(OC)c2)n1CC; 9.9
N#Cc1ccc(CSc2nnc(-c3ccccn3)n2-c2ccc(Cl)cc2)cc1; 7.5

---

The entries below come with measured inhibition values attached.
study.target: Cytochrome P450 2C9 (Homo sapiens) (UniProt P11712)
test.name: blockers of cytochrome P450 2C9 activity – biochemical, luminescence, ADME assay, primary screen (AID 777)
study.conditions: CYP2C9 Supersomes, luciferin-H conversion, at 5 µM, stronger effect = higher value
Out of some 96,000 compounds screened, about 19,000 (20%) were called active. These entries were drawn from the full list.
value.type: inhibition (%)

O=C(Nc1ccc(S(=O)(=O)N2CCCC2)cc1Cl)C1=COCCO1; 19.8
Cc1ccccc1CSc1nnc(-c2cccnc2)n1N; -26.6
O=C1CCCC(O)=C1C=NCCc1ccccc1; 6.6
Cc1ccc(-c2ccc(=O)n(CC(=O)NCCCN3CCCCC3)n2)cc1; 14
NC(=O)c1ncc(C(F)(F)F)cc1Oc1ccc(F)cc1; 7.9
CC(C)OC(=O)c1sc2nc3c(cc2c1N)C(=O)CCC3; 19.5
CCOC(=O)c1sc(NC(=O)C(CC)Sc2nccn2C)nc1C (centres undefined); 45.4
CCn1c(SCC(=O)Nc2cc(C)c(Cl)cc2OC)nnc1-c1ccco1; 61.9
N#Cc1ccc(Oc2cc(C(F)(F)F)nc(-c3ccccn3)n2)cc1; 42
CNC(=S)NNC(=O)c1sccc1OCc1ccccc1; 12.2
CC(C)Cc1ccc(S(=O)(=O)N2CCN(C(=O)c3ccco3)CC2)cc1; 17
CCCCCCC(=O)Nc1nc(C)c(-c2csc(Nc3cc(Cl)ccc3OC)n2)s1; 14.8
O=C(Nc1ccc(-c2nnc(-c3ccccc3)o2)cc1)C1CCCO1 (centres undefined); -11.1
CN(C)c1ccc(NC(=S)N(CCc2ccccc2)C2CC(=O)N(c3c(Cl)cccc3Cl)C2=O)cc1 (centres undefined); 17
